Assay: Amount of fragrance ingredients retained on paper blotter after evaporation (ethanol extraction, GC-MS)
Type: physicochemical
Conditions: Table 9; fragrance COM1 in EdT2; T0 + 480 min
parameterMeasured: amount of fragrance ingredient retained on blotter (percentage of the initial amount) (%)
Answers are plain numbers, in %.

# example entries with known answers
**Query** Name the recorded amount of fragrance ingredient retained on blotter (percentage of the initial amount) for CC(C=O)Cc1ccc(C(C)C)cc1 (centres unmarked) .
**Result** 30.7

**Query** Another molecule to look at: `CC1(C)CCC[C@]2(C)[C@H]3CCO[C@]3(C)CC[C@@H]12`
**Result** 56.6

For the 5 molecules below, give their amount of fragrance ingredient retained on blotter (percentage of the initial amount) values.
1. C=CC(C)(O)CCC=C(C)CC (mixture of isomers)
2. CC(=O)OC1CCCCC1C(C)(C)C (centres unmarked) [Verdox™, (2-tert-butylcyclohexyl) acetate]
3. CC=CC(=O)C1=C(C)CCCC1(C)C
4. CC/C=C(\C)C(O)CCCCC (centres unmarked) [Undecavertol™, (E)-4-methyldec-3-en-5-ol]
5. CC(C)(C)c1ccc(CCC=O)cc1

**Result**
[9.91, 3.7, 10.6, 8.41, 43.9]
